Tested on: NCI-H460 lung
TEST_DESCRIPTION: NCI tumour cell line growth inhibition, 48 h
ASSAY_METRIC: TGI

IN: Jot down TGI (NCI-H460 lung) of O=C(/C=C/c1c(O)ccc2ccccc12)c1cccc2ccccc12 .
OUT: > 100 µM

IN: Jot down TGI (NCI-H460 lung) of COc1ccc(C2SC(N)=Nc3c2c(C)nn3C(=O)c2ccc(Cl)cc2)cc1 (stereo unspecified) .
OUT: > 10 µM

IN: Jot down TGI (NCI-H460 lung) of NC(=O)c1csc(CCCCCCc2nc(C(N)=O)cs2)n1 .
OUT: > 100 µM

IN: Jot down TGI (NCI-H460 lung) of NC1=NC2(O)c3ccccc3C(=O)C2(O)N1 (stereo unspecified) .
OUT: > 100 µM

IN: Jot down TGI (NCI-H460 lung) of CC1=NN2C(=O)CC(=O)N=C2S1 .
OUT: > 100 µM

IN: Jot down TGI (NCI-H460 lung) of Cc1cc(NC(=O)C(=O)Cc2cnc3ccccc3n2)c(S(=O)(=O)O)cc1Cl .
OUT: > 100 µM

###

Overview of recorded TGI for various molecules
Tested on: SW-620 colon
TEST_DESCRIPTION: NCI tumour cell line growth inhibition, 48 h
Where a SMILES comes first, the peptide text is derived from it. [ ]: non-standard residue; d: D form. The star is where a group is joined. ξ: configuration not given here. ξPhe(4-NO2) = NC(Cc1ccc([N+](=O)[O-])cc1)C(=O)O; Boc = CC(C)(C)OC(=O)*; OBn = c1ccc(CO*)cc1

Some solved entries appear below for comparison.
{"MOLECULE": "CCCC[P+](c1ccccc1)(c1ccccc1)c1ccccc1", "TGI": "> 100 µM"}
{"MOLECULE": "CN(C)c1ccc(C2CC(=O)C(C#N)=C(c3ccccc3)NN2C)cc1 (configuration not stated)", "TGI": "> 100 µM"}
{"MOLECULE": "CCc1ccccc1-n1c2nc(=O)n(C)c(=O)c-2nc2ccccc21", "TGI": "27.3 µM"}
{"MOLECULE": "O=C(O)c1ccc(S(=O)(=O)N=Nc2c(O)[nH]c3ccccc23)cc1", "TGI": "> 100 µM"}
{"MOLECULE": "O=C(O)c1ccc(-c2ccc(C(=O)O)cc2I)c(I)c1", "TGI": "> 100 µM"}
{"MOLECULE": "CS(=O)(=O)OCCN(CCOS(C)(=O)=O)c1ccc(C=Nc2ccc3oc(=O)ccc3c2)cc1", "TGI": "> 83.1 µM"}

Continue with the next molecule.
IN: Find the measured TGI of CC(C)(C)OC(=O)NC(Cc1ccc([N+](=O)[O-])cc1)C(=O)NCC(=O)OCc1ccccc1 (configuration not stated) (Boc-[ξPhe(4-NO2)]-Gly-OBn) and report it.
OUT: > 100 µM

###

Test system: HOP-62 NSCLC
TEST_DESCRIPTION: NCI tumour cell line growth inhibition, 48 h
ASSAY_METRIC: GI50

Some solved entries appear below for comparison.
{"MOLECULE": "CCOC(=O)c1c(C)n(CC(C)C)c2c1cc1oc(=O)c(=O)n3cnc2c13", "GI50": "35000 nM"}
{"MOLECULE": "CS(=O)c1ccc(-c2nc(-c3ccc(F)cc3)c(-c3ccncc3)[nH]2)cc1 (centres undefined)", "GI50": "> 100000 nM"}
{"MOLECULE": "CCOC(=O)N1C/C(=C/c2ccc(OC)cc2)C(=O)/C(=C/c2ccc(OC)cc2)C1", "GI50": "2100 nM"}

Continue with the next molecule.
IN: Find the measured GI50 of COc1ccc(C2C(c3ccccc3)C(=O)N2c2cc(OC)c(OC)c(OC)c2)cc1I (centres undefined) and report it.
OUT: 570 nM
